# Test protocol: Vibrio cholerae motility inhibitors, OD read-out (AID 588778)
# Assay conditions: stronger effect = higher value, concentration not given here
Screen size: about 10,000 compounds; fewer than 10 were called active. The list is a sample of the results.
Measured metric: inhibition (%)
Respond with the bare value in %.

For this molecule ( `O=C(Nc1cnccn1)c1cccs1` ), measured inhibition is 20.3

For this molecule ( `COc1ccc(OC)c(C(=O)CCC(=O)Nc2cccc(C(F)(F)F)c2)c1` ), measured inhibition is -4.82

For this molecule ( `Cc1ccc(NC(=O)c2ccccc2NC(=O)Cc2ccc(Cl)cc2)cc1C` ), measured inhibition is 11.1

For this molecule ( CC1(C)CC(=O)C2=C(C1)NC(Nc1nc3ccccc3s1)=NC21C(=O)Nc2ccccc21 (stereo unspecified) ), measured inhibition is 5.23

For this molecule ( `Cn1cnnc1SCC(=O)Nc1ccccn1` ), measured inhibition is 9.88

For this molecule ( `COc1ccc(N(C)NC(=O)Cc2ccccc2)cc1` ), measured inhibition is 16.7

For this molecule ( CCC(=O)OCC12COC3c4ccccc4OC(C)(CC1C)C3C2C (stereo unspecified) ), measured inhibition is -16.5

For this molecule ( `Cc1ccccc1NC(=O)NNc1ccc(F)cc1` ), measured inhibition is 15.9

For this molecule ( `COc1ccc2[nH]cc(CCNS(=O)(=O)Cc3ccccc3)c2c1` ), measured inhibition is 8.63

For this molecule ( S=C1NC(C23CC4CC(CC(C4)C2)C3)=CC(c2ccc(Cl)cc2)N1 (stereo unspecified) ), measured inhibition is -6.78

For this molecule ( `COc1ccc(NC(=O)c2cc(S(=O)(=O)N3CCOCC3)c(Cl)cc2Cl)c([N+](=O)[O-])c1` ), measured inhibition is -16.3

---

# Test protocol: Vibrio cholerae motility inhibitors, OD read-out (AID 588778)
# Assay conditions: stronger effect = higher value, concentration not given here
The campaign covered roughly 10,000 compounds. Fewer than 10 were called active. The list is a sample of the results.
Measured metric: inhibition

For this compound ( `CCCC(=O)c1ccc(N2CCN(C(=O)c3ccccc3Br)CC2)c(F)c1` ), measured inhibition is 1.55% (inactive)

For this compound ( `O=C(O)c1ccc(NC(=O)c2ccc(Cl)cc2)c(NC(=O)c2ccc(Cl)cc2)c1` ), measured inhibition is -7.79% (inactive)

For this compound ( `CC(=O)Nc1sc(/C(C#N)=C/c2ccc(N(C)C)cc2)nc1-c1ccc(C)cc1` ), measured inhibition is 2.79% (inactive)

For this compound ( Cc1c(N2C(=O)C3C4C=CC(C5CC45)C3C2=O)c(=O)n(-c2ccccc2)n1C (stereo not given) ), measured inhibition is -7.28% (inactive)

For this compound ( `CCSc1nnc(NC(=O)c2csc3ccccc23)s1` ), measured inhibition is -5.35% (inactive)

For this compound ( `CC(C)(C)SCCNC(=S)Nc1ccccc1` ), measured inhibition is 32.6% (inactive)

For this compound ( `CCOC(=O)c1sc(NC(=O)COc2ccc(Cl)cc2Cl)cc1C` ), measured inhibition is 19.1% (inactive)

For this compound ( `O=C(NCc1ccc(-c2nc3ccccc3s2)cc1)c1ccc(Br)o1` ), measured inhibition is 1.75% (inactive)

For this compound ( `COc1cc(N2C(=O)c3cccc4c([N+](=O)[O-])ccc(c34)C2=O)ccc1-n1nc(C)cc1C` ), measured inhibition is 3.2% (inactive)

For this compound ( `COc1cccc(-c2cc(C(F)(F)F)n3ncc(C(=O)OC(C)C)c3n2)c1` ), measured inhibition is 14.1% (inactive)

---

# Test protocol: Vibrio cholerae motility inhibitors, OD read-out (AID 588778)
# Assay conditions: stronger effect = higher value, concentration not given here
In all, about 10,000 compounds went through this assay and fewer than 10 were called active. A selection follows.
Measured metric: inhibition (%)
Respond with the bare value in %.

For this compound ( `O=C1C(c2ccccn2)=C(O)c2ccccc21` ), measured inhibition is 14.8

For this compound ( `O=C(Oc1ccc(Cl)cc1Br)c1ccc(F)cc1` ), measured inhibition is -4.46

For this compound ( CCOc1cc(C(=S)N2CC(C)OC(C)C2)cc(I)c1OCC(=O)N1CCCC1 (stereo unspecified) ), measured inhibition is 11

For this compound ( `O=C(NCCSCc1ccco1)Nc1ccccc1` ), measured inhibition is 22.3

For this compound ( `O=C(NCc1ccc(Cl)c(Cl)c1)c1ccc(Br)o1` ), measured inhibition is 20.3

For this compound ( `Cc1nc(Oc2ccc3c(c2)OCO3)c2cc(-c3ccccc3)sc2n1` ), measured inhibition is 6.33

---

# Test protocol: Vibrio cholerae motility inhibitors, OD read-out (AID 588778)
# Assay conditions: measured here: bacterial viability at 10 ug/mL, stronger effect = higher value
Among all 10,000 compounds or so, fewer than 10 were called active. Only a sample is shown.
Measured metric: inhibition (%)
Respond with the bare value in %.

For this compound ( `O=C(CC1(c2ccc(Cl)cc2)C(=O)c2ccccc2C1=O)N1CCCCC1` ), measured inhibition is -0.9

For this compound ( Cc1ccc(NC(NC=O)C(Cl)(Cl)Cl)c(C)c1 (stereo not drawn) ), measured inhibition is 2.8

For this compound ( `CC(C)(NO)C(=O)c1ccc(Cl)cc1` ), measured inhibition is -5.03

For this compound ( `C=CCOc1cccc(CNc2ccc3[nH]c(=O)[nH]c3c2)c1` ), measured inhibition is 18.3

For this compound ( `O=CN1Cc2ccccc2-c2ccccc2C1` ), measured inhibition is 3.25

For this compound ( COC(C(=O)Nc1cc([N+](=O)[O-])ccc1C)c1ccccc1 (stereo not drawn) ), measured inhibition is -3.16

For this compound ( `c1ccc2nc3c(nc2c1)CCc1nonc1-3` ), measured inhibition is -1.06

For this compound ( N#Cc1cc2c(nc1SCC1(O)CCCc3ccccc31)CCCC2 (stereo not drawn) ), measured inhibition is -3.11

For this compound ( `Cc1cc(NC(=O)c2ccccc2Cl)c(OC(=O)c2ccccc2Cl)cc1C` ), measured inhibition is -9.05

For this compound ( `Cc1ccccc1C(=O)N1CCN(c2nc(N3CCCC3)nc(N3CCCC3)n2)CC1` ), measured inhibition is 0.25

For this compound ( `Cc1cccc(C(=O)Nc2ccc(I)cc2C(=O)N2CCCC2)c1` ), measured inhibition is -1.35

For this compound ( CC(C)C(C(=O)O)c1ccc([N+](=O)[O-])cc1 (stereo not drawn) ), measured inhibition is -2.35

For this compound ( `O=C(NC(=S)NCc1ccccc1)C1CC1` ), measured inhibition is 5.74

---

# Test protocol: Vibrio cholerae motility inhibitors, OD read-out (AID 588778)
# Assay conditions: stronger effect = higher value, concentration not given here
Fewer than 10 of roughly 10,000 compounds were called active. The list is a sample of the results.
Measured metric: inhibition (%)
Respond with the bare value in %.

For this molecule ( `COc1cccc(/C=C(\C#N)c2ccccc2)c1OC(C)C` ), measured inhibition is 22.8

For this molecule ( CC(=O)c1cccc(NC(=O)C2CC(=O)N(Cc3ccccc3)C2)c1 (stereo unspecified) ), measured inhibition is -14

For this molecule ( `O=C(NC(=S)Nc1ccccc1C(=O)NC1CCCCC1)c1ccco1` ), measured inhibition is 3.43

For this molecule ( `C=CCn1c2ccccc2c2nnc(SCC(=O)Nc3cc(C)on3)nc21` ), measured inhibition is -1.67

For this molecule ( `Cc1cc2ccccc2n2c(SCC(=O)c3ccc4c(c3)OCCO4)nnc12` ), measured inhibition is 0.44

For this molecule ( CC12CCC(C(=O)NCc3ccc4c(c3)OCO4)(c3nc4ccccc4nc31)C2(C)C (stereo unspecified) ), measured inhibition is 3.2

---

# Test protocol: Vibrio cholerae motility inhibitors, OD read-out (AID 588778)
# Assay conditions: stronger effect = higher value, concentration not given here
Screen size: about 10,000 compounds; fewer than 10 were called active. A selection follows.
Measured metric: inhibition

For this compound ( `COc1ccc(C(=O)ON2C(=O)CCC2=O)cc1I` ), measured inhibition is 4.65% (inactive)

For this compound ( `CCOc1ccc(-n2nc3ccc(NC(=S)NC(=O)CC)cc3n2)cc1` ), measured inhibition is -22.2% (inactive)

For this compound ( `COc1ccc(Br)cc1CNCc1cccs1` ), measured inhibition is 84.4% (inactive)

For this compound ( `CCCC(=O)N1CCN(c2ccc(NC(=O)COc3ccc(C)c(C)c3)cc2Cl)CC1` ), measured inhibition is 10.7% (inactive)

For this compound ( `COc1c(S(=O)(=O)N2CCCN(S(=O)(=O)c3ccc(Cl)c(Cl)c3OC)CC2)ccc(Cl)c1Cl` ), measured inhibition is 8.96% (inactive)

For this compound ( `CN(C)C(=O)c1ccccc1C(=O)N(C)C` ), measured inhibition is -3.26% (inactive)

For this compound ( `Cc1nnc(SCC(=O)Nc2ccc(Cl)cn2)s1` ), measured inhibition is -2.25% (inactive)

For this compound ( O=C(CC(NC(=S)Nc1ccccc1)c1ccccc1)c1ccccc1 (centres undefined) ), measured inhibition is 15.4% (inactive)

For this compound ( `O=C(O)Cc1ccc(NC(=O)c2cccnc2C(=O)O)cc1` ), measured inhibition is -4.82% (inactive)

For this compound ( `COC(=O)c1ccc2ccn(CC(N)=O)c2c1` ), measured inhibition is 8.78% (inactive)

For this compound ( `O=C(CSc1nnnn1-c1ccccc1)c1cc2ccccc2oc1=O` ), measured inhibition is 3.97% (inactive)

For this compound ( Cc1ccccc1NC(=O)NC1CCS(=O)(=O)C1 (centres undefined) ), measured inhibition is -0.46% (inactive)

For this compound ( `COc1cc(C(=O)Nc2nnc(-c3sccc3C)s2)cc(OC)c1OC` ), measured inhibition is -3.78% (inactive)

For this compound ( `Cc1ccc(S(=O)(=O)Nc2cc(Sc3nnnn3-c3ccccc3)c(O)c3ccccc23)cc1` ), measured inhibition is 15.9% (inactive)

For this compound ( CC(C)CNC(=S)NNC(=O)CC(C)O (centres undefined) ), measured inhibition is 52.6% (inactive)

For this compound ( `CCc1ccccc1OCCCCn1c2ccccc2c2ccccc21` ), measured inhibition is -30.3% (inactive)

For this compound ( `O=C(CC1(c2ccc(Cl)cc2)C(=O)c2ccccc2C1=O)N1CCCCC1` ), measured inhibition is 16% (inactive)

For this compound ( `Cc1cccc(C)c1N1CCN(C(=O)N2CCCCC2)CC1` ), measured inhibition is 8.63% (inactive)

For this compound ( `O=C(Cc1c(F)cccc1Cl)NCc1ccc2c(c1)OCO2` ), measured inhibition is 40% (inactive)

For this compound ( `CCSc1ncc(Cl)c(C(=O)Nc2c(C)n(C)n(-c3ccccc3)c2=O)n1` ), measured inhibition is -0.94% (inactive)

For this compound ( `O=C(NC(=S)NNC(=O)c1cnccn1)c1ccc(F)cc1` ), measured inhibition is 17.5% (inactive)

For this compound ( `O=C(c1ccc(Sc2nnc(Cc3ccccc3)n2-c2ccccc2)c([N+](=O)[O-])c1)N1CCCC1` ), measured inhibition is -6.85% (inactive)

For this compound ( `COc1c(C)cc(Br)cc1C(=O)NC(=S)Nc1nc(C)cc(C)n1` ), measured inhibition is -16.1% (inactive)

For this compound ( `O=C(NC(=O)c1ccccc1)Nc1ccc(Br)cc1` ), measured inhibition is -16.2% (inactive)
